Target: T1, LIN7A, O14910
T1 sequence (O14910 103-200, limits assumed, looked up): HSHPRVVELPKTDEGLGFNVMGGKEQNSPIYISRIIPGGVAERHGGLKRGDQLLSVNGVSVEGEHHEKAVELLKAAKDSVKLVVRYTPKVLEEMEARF
Experiment: holdup assay
Design: key: below the threshold = too weak to quantify, mostly under pKd 3.1 to 4
Settings: plain residues with an end cap or a label only (N-terminal biotin on a linker: ttds)
Endpoint Name: pKd

1. SKPTRRETEV [HPV35-E6, P27228] = below the threshold
2. KKYVDAETSL [SLC4A7, Q9Y6M7] = below the threshold
3. SGSRPSATVV [HPV73-E6, Q82005] = below the threshold
4. RLQRRRETQV [HPV18-E6, P06463] = 3.4
